- system.tested: r-h TM1-N URAT1 chimera (Rattus norvegicus, UniProt Q3ZAV1, A21T/L18V/T26V/V22M/V25M)
- Sequence (Q3ZAV1 1-553 L18V/A21T/V22M/V25M/T26V): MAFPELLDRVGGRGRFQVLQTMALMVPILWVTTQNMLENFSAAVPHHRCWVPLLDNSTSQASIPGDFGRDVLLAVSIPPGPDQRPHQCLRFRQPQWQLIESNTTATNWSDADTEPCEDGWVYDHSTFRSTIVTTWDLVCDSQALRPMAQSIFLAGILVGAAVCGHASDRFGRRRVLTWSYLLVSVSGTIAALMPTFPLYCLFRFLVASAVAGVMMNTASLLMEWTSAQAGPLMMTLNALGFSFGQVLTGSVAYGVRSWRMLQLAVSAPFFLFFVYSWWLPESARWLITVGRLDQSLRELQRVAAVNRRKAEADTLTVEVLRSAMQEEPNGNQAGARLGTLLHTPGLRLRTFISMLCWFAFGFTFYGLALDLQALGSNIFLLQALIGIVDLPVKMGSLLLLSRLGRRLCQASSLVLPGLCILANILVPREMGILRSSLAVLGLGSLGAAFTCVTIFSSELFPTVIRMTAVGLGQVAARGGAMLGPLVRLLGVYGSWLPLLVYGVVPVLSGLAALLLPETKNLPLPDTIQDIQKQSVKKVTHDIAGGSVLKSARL
- assay.procedure: URAT1 uric acid transport activity assay
- Assay type: cell-based, human/rat
- run.conditions: r-h TM1-N; HEPES pH 7.3; 100 μM 14C-uric acid; read-out: IC50 (uric acid transport)

>  <compound>
O=C1C(CC[S+]([O-])c2ccccc2)C(=O)N(c2ccccc2)N1c1ccccc1 (stereo not shown) [sulfinpyrazone]

>  <IC50>
12 µM

$$$$

###

- system.tested: r-h TM1-C URAT1 chimera (Rattus norvegicus, UniProt Q3ZAV1, L29M/N35S/P27S/T32C/V31L)
- Sequence (Q3ZAV1 1-553 P27S/L29M/V31L/T32C/N35S): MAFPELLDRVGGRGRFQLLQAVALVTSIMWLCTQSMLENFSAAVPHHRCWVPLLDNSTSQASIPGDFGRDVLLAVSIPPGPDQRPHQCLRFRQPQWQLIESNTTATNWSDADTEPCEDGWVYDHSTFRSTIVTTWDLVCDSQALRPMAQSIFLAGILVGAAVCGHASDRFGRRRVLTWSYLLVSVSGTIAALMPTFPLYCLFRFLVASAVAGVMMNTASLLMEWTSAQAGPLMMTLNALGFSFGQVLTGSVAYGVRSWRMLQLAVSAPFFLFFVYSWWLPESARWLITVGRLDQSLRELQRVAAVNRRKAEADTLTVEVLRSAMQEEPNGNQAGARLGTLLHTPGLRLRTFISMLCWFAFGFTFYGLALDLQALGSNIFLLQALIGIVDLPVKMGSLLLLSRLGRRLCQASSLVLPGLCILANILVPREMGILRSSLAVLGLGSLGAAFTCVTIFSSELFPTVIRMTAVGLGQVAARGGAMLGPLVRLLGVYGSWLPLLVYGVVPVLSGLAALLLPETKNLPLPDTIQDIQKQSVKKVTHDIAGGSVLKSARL
- assay.procedure: URAT1 uric acid transport activity assay
- Format: cell-based, human/rat

>  <compound>
CCc1oc2ccccc2c1C(=O)c1cc(Br)c(O)c(Br)c1 [benzbromarone]

>  <system.tested>
r-h TM1-C URAT1 chimera (Rattus norvegicus, UniProt Q3ZAV1, L29M/N35S/P27S/T32C/V31L)

>  <IC50, µM>
12

$$$$
